experiment: CCTE_Shafer_MEA_dev_correlation_coefficient_mean: CCTE's Neural Network Formation Assay for Mean Correlation Coefficient, Shafer Lab (AID 2284093)
Activity calls are given as the source filed them. How the source made its calls: active means hit-call score of the fitted dose curve at least 0.9, where 1 is the maximum; inactive means score below 0.9.
Please state which outcome applies, choosing from active, inactive

Data request: # outcome recorded in this test, key = OCC(O)CC(F)(F)C(F)(F)C(F)(F)C(F)(F)F (centres undefined)
Data returned: inactive

Data request: State the result this test recorded for `O=S(=O)(O)CCC(F)(F)C(F)(F)C(F)(F)C(F)(F)C(F)(F)C(F)(F)C(F)(F)C(F)(F)F` .
Data returned: inactive

Data request: Please share the test call associated with `C=CC(=O)OCC(F)(F)C(F)(F)C(F)(F)COC(=O)C=C` .
Data returned: active

---

read-out: Monokine induced gamma interferon (MIG), CXCL9 (gene 4283); assay: BSK_CASM3C_MIG: BioMAP Diversity Plus: CASM3C Assay for Monokine induced gamma interferon (MIG) Biomarker Activity (AID 2283048); conditions: primary human coronary artery smooth muscle cells; actives raise or lower the signal;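 further: MIG protein level measured by ELISA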
The source made the active and inactive calls. How the source made its calls: active means hit-call score of the fitted dose curve at least 0.9, where 1 is the maximum; inactive means score below 0.9.
Give your call using only these classes: Yes for active, No for inactive

A selection of reference data follows.
C=CC(=O)OCC(F)(F)C(F)(F)C(F)(F)C(F)(F)C(F)(F)C(F)(F)C(F)(F)C(F)F | No
NC(O)(C(F)(F)F)C(F)(F)F | No
O=C(Cl)C(F)(F)C(F)(F)C(F)(F)C(F)(F)C(F)(F)C(F)(F)C(F)(F)F | No
CC(C)CCCC(C)CCO (centres undefined) | Yes
C[Si](Cl)(Cl)CCC(F)(F)C(F)(F)C(F)(F)C(F)(F)C(F)(F)C(F)(F)F | No

Data request: Please let me know the test result on file for `NC(=O)C(F)(F)C(F)(F)C(F)(F)C(F)F` .
Data returned: No

Data request: I would be grateful if you could indicate the recorded call for FC(F)(F)C(F)(F)C(F)(F)CC1CO1 (centres undefined) .
Data returned: No

Data request: Please let me know the test result on file for `NC(=O)C(F)(F)C(F)(F)C(F)(F)C(F)(F)C(F)(F)C(F)(F)C(F)(F)F` .
Data returned: No

Data request: Hi, do you know how `OCC(F)(F)C(F)(F)C(F)(F)CO` came out in this test?
Data returned: No

Data request: Name the outcome recorded for `CCN(CC)c1ccc(C=O)cc1` in the assay.
Data returned: No

Data request: # outcome recorded in this test, key = `O=C(O)C(F)(F)C(F)(F)C(F)(F)C(=O)O`
Data returned: No

Data request: // param item: `OCCCCC(F)(F)C(F)(F)C(F)(F)C(F)(F)F` ; yields the recorded call
Data returned: No

Data request: Which outcome did this test record for the molecule `FC(F)(F)C(F)(F)C(F)(F)C(F)(F)C(F)(F)C(F)(F)CC[Si](Cl)(Cl)Cl` ?
Data returned: No

Data request: Please let me know the test result on file for `O=S(=O)(O)CCC(F)(F)C(F)(F)C(F)(F)C(F)(F)C(F)(F)C(F)(F)C(F)(F)C(F)(F)F` .
Data returned: No

Data request: Hey, what did the test say about `NC(=O)C(F)(F)C(F)(F)C(F)(F)F` ?
Data returned: No

Data request: What classification did `O=S(=O)(Cl)C(F)(F)C(F)(F)C(F)(F)C(F)(F)C(F)(F)C(F)(F)C(F)(F)C(F)(F)F` end up with in this test?
Data returned: No

Data request: State the result this test recorded for `Cc1ccc(O)c(-n2nc3ccccc3n2)c1` .
Data returned: No

Data request: Assay result, entry CC1=CC2C3C=CC(C3)C2C1C (centres undefined) — outcome?
Data returned: No

Data request: For OCC(O)CC(F)(F)C(F)(F)C(F)(F)C(F)(F)C(F)(F)C(F)(F)C(F)(F)C(F)(F)F (centres undefined) , which call appears in the assay record?
Data returned: No

Data request: Recorded test outcome, item `NC(=O)C(F)(F)C(F)(F)C(F)(F)C(F)(F)C(N)=O`
Data returned: No

Data request: // outcome(item) with item = `CCN(CC)c1ccc2c(c1)Oc1cc(N(CC)CC)ccc1C21OC(=O)c2ccccc21`
Data returned: No

Data request: Each molecule tested received a call. Report the one for `O=C1C=CC(=O)N1c1ccc(Cc2ccc(N3C(=O)C=CC3=O)cc2)cc1` .
Data returned: Yes

Data request: # fetch the recorded call for `O=C(O)C(F)(F)C(F)(F)C(F)(F)OC(F)(C(F)(F)F)C(F)(F)F` here
Data returned: No

Data request: # outcome recorded in this test, key = `CO[Si](C)(CCC(F)(F)C(F)(F)C(F)(F)C(F)(F)C(F)(F)C(F)(F)F)OC`
Data returned: No

---

biological target: rat Serotonin Transporter (SERT), Slc6a4 (gene 25553) (UniProt P31652); experiment: NVS_TR_rSERT: NovaScreen (NVS) Transporter Assay for rat Serotonin Transporter (SERT) (AID 2283375)
Sequence (P31652 whole entry, looked up): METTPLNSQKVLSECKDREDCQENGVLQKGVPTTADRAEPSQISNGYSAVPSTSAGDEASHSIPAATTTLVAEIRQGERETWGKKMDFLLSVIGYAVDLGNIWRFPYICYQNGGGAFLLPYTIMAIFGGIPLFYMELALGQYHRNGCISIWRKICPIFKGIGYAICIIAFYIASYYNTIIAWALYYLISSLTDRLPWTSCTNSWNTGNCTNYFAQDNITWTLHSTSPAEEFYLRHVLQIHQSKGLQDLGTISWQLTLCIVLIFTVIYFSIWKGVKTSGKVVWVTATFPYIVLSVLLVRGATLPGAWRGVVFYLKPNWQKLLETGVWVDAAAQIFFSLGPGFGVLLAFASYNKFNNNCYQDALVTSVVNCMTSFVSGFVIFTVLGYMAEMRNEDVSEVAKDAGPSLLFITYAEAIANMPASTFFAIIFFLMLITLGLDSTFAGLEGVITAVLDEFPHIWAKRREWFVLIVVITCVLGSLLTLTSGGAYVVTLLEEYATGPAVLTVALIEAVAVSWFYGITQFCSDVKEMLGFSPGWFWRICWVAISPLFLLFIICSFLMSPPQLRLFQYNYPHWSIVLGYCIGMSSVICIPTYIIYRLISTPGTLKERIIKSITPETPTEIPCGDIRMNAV
Inconclusive results are not listed. Calls of active or inactive are those of the source. How the source made its calls: active means hit-call score of the fitted dose curve at least 0.9, where 1 is the maximum; inconclusive means response in the unintended direction; inactive means score below 0.9.
Catalogue of compounds with associated AC50

Please review the entries below; each comes with its answer.
C[C@]12CC[C@H]3C(=CCc4cc(O)ccc43)[C@@H]1CCC2=O | 15.6 µM (active)
CCN(CC)c1ccc(C=O)cc1 | 15.8 µM (active)

Attention now turns to another entry.
For this compound ( `c1ccc(C[P+](c2ccccc2)(c2ccccc2)c2ccccc2)cc1` ), measured AC50 is 3.33 µM (active)

---

read-out: Collagen III, COL3A1 (gene 1281); experiment: BSK_MyoF_CollagenIII: BioMAP Diversity Plus: MyoF Assay for Collagen III Biomarker Activity (AID 2284239); conditions: primary human lung fibroblasts
Activity calls are given as the source filed them. How the source made its calls: active means hit-call score of the fitted dose curve at least 0.9, where 1 is the maximum; inactive means score below 0.9.
Would you mind answering with one of these outcomes? Y for active, N for inactive

Below are worked cases with known answers.
O=S(=O)(OCC(F)(F)F)C(F)(F)C(F)(F)C(F)(F)C(F)(F)F | N
CC(C)(C)c1cc(CCC(=O)NCCCCCCNC(=O)CCc2cc(C(C)(C)C)c(O)c(C(C)(C)C)c2)cc(C(C)(C)C)c1O | N
C[Si](Cl)(Cl)CCC(F)(F)C(F)(F)C(F)(F)C(F)(F)C(F)(F)C(F)(F)F | N
Cc1cc(C)c(O)c(C(C)(C)C)c1 | Y

Data request: What was the test verdict on `O=C(O)C(F)(F)OC(F)(F)C(F)(F)OC(F)(F)C(F)(F)OC(F)(F)F` ?
Data returned: N

Data request: Any idea what this test logged for `CCN(CC)c1ccc(N=Nc2ccccc2)cc1` ?
Data returned: N

Data request: Which outcome was assigned to `O=C(O)CCC(F)(F)C(F)(F)C(F)(F)F` in this test?
Data returned: N

Data request: Just curious, what result did `CCN(CC)c1ccc2c(c1)Oc1cc(N(CC)CC)ccc1C21OC(=O)c2ccccc21` get here?
Data returned: N

Data request: Test call, this compound: `O=C(O)C(F)(F)C(F)(F)C(F)(F)OC(F)(F)F`
Data returned: N

Data request: Please let me know the test result on file for `O=C(F)C1(F)C(F)(F)C(F)(F)C(F)(F)C(F)(F)C1(F)F` .
Data returned: N

Data request: Returns: the outcome recorded for `CCOC(C=C(C)CCC=C(C)C)OCC` in this assay.
Data returned: Y

---

target: Cellular tumor antigen p53 (Homo sapiens) (UniProt P04637); assay: ATG_p53_CIS: Attagene CIS-FACTORIAL HepG2 Assay for human p53 Transcription Factor (AID 2282994); settings: HepG2 p53 cis-element reporter, Attagene mRNA; actives raise or lower the signal
Sequence (P04637 whole entry, looked up): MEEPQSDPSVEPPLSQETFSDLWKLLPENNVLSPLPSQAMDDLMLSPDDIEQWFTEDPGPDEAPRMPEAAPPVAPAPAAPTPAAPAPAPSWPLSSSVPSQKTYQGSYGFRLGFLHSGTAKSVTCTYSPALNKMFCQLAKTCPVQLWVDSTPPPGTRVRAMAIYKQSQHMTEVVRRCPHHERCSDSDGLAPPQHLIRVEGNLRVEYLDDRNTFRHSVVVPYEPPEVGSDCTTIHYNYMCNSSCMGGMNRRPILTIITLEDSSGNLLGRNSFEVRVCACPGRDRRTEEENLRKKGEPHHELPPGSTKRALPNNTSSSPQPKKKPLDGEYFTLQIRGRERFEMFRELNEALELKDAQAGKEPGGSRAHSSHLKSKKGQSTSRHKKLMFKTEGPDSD
The source made the active and inactive calls. Rule for the calls: active = hit-call score of the fitted dose curve at least 0.9, where 1 is the maximum; inactive = score below 0.9.
Please answer using one outcome listed in Yes for active, No for inactive

COC(F)(C(F)F)C(F)(F)F (stereo not drawn) | No
CCOCOCC | No
CCN(CC)c1ccc(N=Nc2ccccc2)cc1 | No

Now look at this entry.
Data request: What was the test verdict on `FC(F)(F)C(F)(F)C(F)(F)C(F)(F)C(F)(F)C(F)(F)C(F)(F)CCI` ?
Data returned: No

---

read-out: Vascular cell adhesion molecule 1 (VCAM1), VCAM1 (gene 7412); experiment: BSK_CASM3C_VCAM1: BioMAP Diversity Plus: CASM3C Assay for Vascular cell adhesion molecule 1 (VCAM1) Biomarker Activity (AID 2283055); settings: primary human coronary artery smooth muscle cells; actives raise or lower the signal;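 further: VCAM-1 protein level quantified by ELISA on the cells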
The source made the active and inactive calls. How the source made its calls: active means hit-call score of the fitted dose curve at least 0.9, where 1 is the maximum; inactive means score below 0.9.
The reply should be one of these categories: True for active, False for inactive

Record excerpt, results attached:
CCOC(C=C(C)CCC=C(C)C)OCC | True
O=C(O)C(F)(F)C(F)(F)C(F)(F)OC(F)(C(F)(F)F)C(F)(F)F | False
OCC(F)(F)C(F)(F)C(F)(F)C(F)(F)C(F)(F)C(F)(F)CO | False

Data request: State the result this test recorded for `NC(O)(C(F)(F)F)C(F)(F)F` .
Data returned: False

Data request: // return assay outcome for `CO[Si](C)(CCC(F)(F)C(F)(F)C(F)(F)C(F)(F)C(F)(F)C(F)(F)F)OC`
Data returned: False
